target: 5HT3a receptor expressed in HEK-293T cells (Homo sapiens (Human)); assay: Inhibition of Ca flux activity of 5HT3 in vitro assay; settings: calcium flux, 5HT 216 nM, approximate values
assay_endpoint: pIC50
Give only the number. pIC50 is defined as minus log10 of concentration in molar units.

Form entry - test system: 5HT3a receptor expressed in HEK-293T cells (Homo sapiens (Human)); read-out: pIC50; molecule: CN1[C@@H]2CC[C@H]1C[C@@H](NC(=O)c1nn(CC(F)F)c3ccccc13)C2 [Example 90]
9.12

Form entry - test system: 5HT3a receptor expressed in HEK-293T cells (Homo sapiens (Human)); read-out: pIC50; molecule: O=C(OC1C[C@H]2CC[C@@H](C1)N2)c1cn(CC(F)F)c2ccccc12 (some centres unmarked) [Example 45]
8.51

Form entry - test system: 5HT3a receptor expressed in HEK-293T cells (Homo sapiens (Human)); read-out: pIC50; molecule: CN1[C@@H]2CC[C@H]1CC(OC(=O)c1c3n(c4ccccc14)CCCCO3)C2 (some centres unmarked) [Example 84]
8.79

Form entry - test system: 5HT3a receptor expressed in HEK-293T cells (Homo sapiens (Human)); read-out: pIC50; molecule: CN1[C@@H]2COC[C@H]1CC(NC(=O)c1cn(-c3cnccn3)c3ccccc13)C2 (some centres unmarked) [Example 130]
9.26

Form entry - test system: 5HT3a receptor expressed in HEK-293T cells (Homo sapiens (Human)); read-out: pIC50; molecule: O=C(OC1C[C@H]2COC[C@@H](C1)N2CCF)c1cn(CC(F)(F)F)c2ccc(F)cc12 (some centres unmarked) [Example 50]
7.89

Form entry - test system: 5HT3a receptor expressed in HEK-293T cells (Homo sapiens (Human)); read-out: pIC50; molecule: CN1[C@@H]2CC[C@H]1CC(NC(=O)c1cn(CC(F)F)c3ccc(F)cc13)C2 (some centres unmarked) [Example 75]
8.50

Form entry - test system: 5HT3a receptor expressed in HEK-293T cells (Homo sapiens (Human)); read-out: pIC50; molecule: CN1[C@@H]2CC[C@H]1CC(OC(=O)c1c3n(c4ccccc14)CCCO3)C2 (some centres unmarked) [Example 85]
8.98

---

target: 5HT3a receptor expressed in HEK-293T cells (Homo sapiens (Human)); test: Inhibition of Ca flux activity of 5HT3 in vitro assay; settings: calcium flux, 5HT 216 nM, approximate values
Exercise: state measured IC50 for each of the compounds provided.
Give the number; nM is assumed, so skip it.

Give the measured IC50 of O=C(OC1CC2COCC(C1)N2)c1cn(CC(F)(F)F)c2ccc(F)cc12 (stereo not shown) .
2.36

Give the measured IC50 of CN1[C@@H]2CC[C@H]1CC(OC(=O)c1cn(CC(F)(F)F)c3ncccc13)C2 (stereo partly shown) .
5.56

Give the measured IC50 of CN1[C@@H]2COC[C@H]1CC(NC(=O)c1cn(S(C)(=O)=O)c3ccc(F)cc13)C2 (stereo partly shown) .
0.5

---

biological target: 5HT3a receptor expressed in HEK-293T cells (Homo sapiens (Human)); assay: Inhibition of Ca flux activity of 5HT3 in vitro assay; details: calcium flux, 5HT 216 nM, approximate values
Structures can show the parent of a compound that is named as a salt.
Exercise: state measured pIC50 for each of the molecules provided.
Give only the number. pIC50 is defined as minus log10 of concentration in molar units.

Give the measured pIC50 of CC(C)S(=O)(=O)n1cc(C(=O)NC2C[C@H]3COC[C@@H](C2)N3C)c2ccccc21 (stereo partly shown) .
9.11

Give the measured pIC50 of Cc1c(C(=O)OC2C[C@H]3CCC[C@@H](C2)N3C)c2ccccc2n1CCF (stereo partly shown) .
9.66

Give the measured pIC50 of CN1C2COCC1CC(NC(=O)c1cn(CCF)c3ccccc13)C2 (stereo not shown) .
9.39

Give the measured pIC50 of Cc1c(C(=O)OC2C[C@H]3CC[C@@H](C2)N3C)c2ccccc2n1CC(F)F (stereo partly shown) .
8.50

Give the measured pIC50 of CN1C2COCC1CC(NC(=O)c1cn(-c3cncs3)c3ncccc13)C2 (stereo not shown) [Example 148, trifluoroacetic acid salt] .
9.40

Give the measured pIC50 of CN1[C@@H]2COC[C@H]1CC(OC(=O)c1cn(CC(F)(F)F)c3ncccc13)C2 (stereo partly shown) .
8.74

Give the measured pIC50 of CN1[C@@H]2COC[C@H]1CC(OC(=O)c1cn(S(C)(=O)=O)c3ccccc13)C2 (stereo partly shown) .
9.48

Give the measured pIC50 of CN1[C@@H]2CC[C@H]1CC(OC(=O)c1cn(S(C)(=O)=O)c3ccc(F)cc13)C2 (stereo partly shown) .
8.61

Give the measured pIC50 of CN1[C@@H]2CC[C@H]1CC(OC(=O)c1cn(C3CCOC3)c3ccccc13)C2 (stereo partly shown) .
9.03

Give the measured pIC50 of CN1[C@@H]2COC[C@H]1CC(NC(=O)c1cn(CC(F)(F)F)c3ncc(F)cc13)C2 (stereo partly shown) .
8.98

Give the measured pIC50 of O=C(NC1C[C@H]2COC[C@@H](C1)N2)c1nn(CC(F)F)c2ccccc12 (stereo partly shown) .
8.39

Give the measured pIC50 of CN1[C@@H]2COC[C@H]1CC(NC(=O)c1cn(C(F)C(F)(F)F)c3ncccc13)C2 (stereo partly shown) .
8.84

Give the measured pIC50 of `CN1[C@@H]2COC[C@H]1C[C@@H](NC(=O)c1cn(-c3cnccn3)c3ccccc13)C2` .
9.19

Give the measured pIC50 of O=C(NC1C[C@H]2COC[C@@H](C1)N2)c1cn(CC(F)(F)F)c2ncc(F)cc12 (stereo partly shown) .
7.47

Give the measured pIC50 of CN1[C@@H]2CCC[C@H]1CC(OC(=O)c1cn(CC(F)(F)F)c3ccc(F)cc13)C2 (stereo partly shown) .
9.18

---

target: 5HT3a receptor expressed in HEK-293T cells (Homo sapiens (Human), UniProt P46098); experiment: Inhibition of Ca flux activity of 5HT3 in vitro assay; conditions: calcium flux, 5HT 216 nM, approximate values
Sequence (P46098 24-478): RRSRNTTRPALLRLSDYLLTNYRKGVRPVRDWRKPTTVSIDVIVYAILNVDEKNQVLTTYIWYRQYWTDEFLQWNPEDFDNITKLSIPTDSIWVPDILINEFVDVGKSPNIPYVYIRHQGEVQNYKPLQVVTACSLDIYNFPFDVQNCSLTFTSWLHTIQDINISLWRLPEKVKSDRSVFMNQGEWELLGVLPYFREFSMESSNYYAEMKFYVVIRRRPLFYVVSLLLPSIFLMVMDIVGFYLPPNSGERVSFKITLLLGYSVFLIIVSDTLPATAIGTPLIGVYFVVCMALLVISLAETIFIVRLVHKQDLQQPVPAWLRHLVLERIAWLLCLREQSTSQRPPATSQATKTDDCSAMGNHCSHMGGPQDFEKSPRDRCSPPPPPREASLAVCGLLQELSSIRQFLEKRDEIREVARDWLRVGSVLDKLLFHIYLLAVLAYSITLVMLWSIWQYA
Counter-ions that a name gives are not always drawn.
assay_endpoint: IC50

Give the measured IC50 of CN1[C@@H]2CC[C@H]1CC(OC(=O)c1c(Cl)n(CC(F)F)c3ccccc13)C2 (stereo partly shown) .
1.02 nM

Give the measured IC50 of CN1[C@@H]2COC[C@H]1C[C@@H](NC(=O)c1cn(-c3nccs3)c3ncccc13)C2 [Example 146, trifluoroacetic acid salt] .
0.702 nM

Give the measured IC50 of `O=C(N[C@H]1CN2CCC1CC2)c1cn(CC(F)F)c2ncccc12` .
> 1000 nM

Give the measured IC50 of CN1C2COCC1CC(NC(=O)c1nn(-c3cncs3)c3ccccc13)C2 (stereo not shown) [Example 165, trifluoroacetic acid salt] .
1.53 nM

---

molecular target: 5HT3a receptor expressed in HEK-293T cells (Homo sapiens (Human), UniProt P46098); test: Inhibition of Ca flux activity of 5HT3 in vitro assay; conditions: calcium flux, 5HT 216 nM, approximate values
Counter-ions that a name gives are not always drawn.
assay_endpoint: IC50 (nM)
Give the number; nM is assumed, so skip it.

Give the measured IC50 of CN1[C@@H]2COC[C@H]1C[C@@H](NC(=O)c1cn(-c3cscn3)c3ncccc13)C2 [Example 147, trifluoroacetic acid salt] .
0.4

Give the measured IC50 of CC(C)S(=O)(=O)n1cc(C(=O)NC2CC3COCC(C2)N3C)c2cc(F)ccc21 (stereo not shown) [Example 93] .
1.39

Give the measured IC50 of CN1[C@@H]2CCC[C@H]1CC(OC(=O)c1cn(CCF)c3ccccc13)C2 (stereo partly shown) [Example 87] .
0.18

Give the measured IC50 of CS(=O)(=O)n1cc(C(=O)NC2C[C@H]3COC[C@@H](C2)N3)c2cc(F)ccc21 (stereo partly shown) [Example 78] .
4.81

Give the measured IC50 of O=C(NC1C[C@H]2COC[C@@H](C1)N2)c1cn(CC(F)(F)F)c2ncccc12 (stereo partly shown) [Example 38] .
1.82

Give the measured IC50 of CN1[C@@H]2COC[C@H]1C[C@@H](NC(=O)c1cn(-c3cncn3C)c3ccccc13)C2 [Example 154] .
0.328

Give the measured IC50 of O=C(OC1C[C@H]2COC[C@@H](C1)N2)c1cn(-c2nccs2)c2ccccc12 (stereo partly shown) [Example 128] .
2.16

Give the measured IC50 of CN1C2CCC1CC(NC(=O)c1nn(S(C)(=O)=O)c3ccccc13)C2 (stereo not shown) [Example 62] .
0.75

Give the measured IC50 of CN1[C@@H]2COC[C@H]1CC(NC(=O)c1cn(-c3ccnnc3)c3ccccc13)C2 (stereo partly shown) [Example 190] .
0.75

Give the measured IC50 of CN1[C@@H]2COC[C@H]1CC(NC(=O)c1nn(CC(F)(F)F)c3ccccc13)C2 (stereo partly shown) [Example 126] .
0.86

Give the measured IC50 of CN1C2COCC1CC(NC(=O)c1cn(-c3nccs3)c3ccccc13)C2 (stereo not shown) [Example 118] .
0.86

Give the measured IC50 of CN1[C@@H]2CC[C@H]1CC(OC(=O)c1c(Cl)n(CCF)c3ccccc13)C2 (stereo partly shown) [Example 55] .
0.9

Give the measured IC50 of CN1C2COCC1CC(NC(=O)c1cn(CC#N)c3ccccc13)C2 (stereo not shown) [Example 159, trifluoroacetic acid salt] .
0.298

Give the measured IC50 of N#Cc1cccc(-n2cc(C(=O)OC3CC4COCC(C3)N4)c3ccccc32)c1 (stereo not shown) [Example 172, trifluoroacetic acid salt] .
2.89

Just for reference, patent US9303045B2 is where these values come from.
